The reported measurements were obtained from patent US6906097B2.

molecular target: hEP4 (Homo sapiens, UniProt P35408)
Sequence (P35408 whole entry): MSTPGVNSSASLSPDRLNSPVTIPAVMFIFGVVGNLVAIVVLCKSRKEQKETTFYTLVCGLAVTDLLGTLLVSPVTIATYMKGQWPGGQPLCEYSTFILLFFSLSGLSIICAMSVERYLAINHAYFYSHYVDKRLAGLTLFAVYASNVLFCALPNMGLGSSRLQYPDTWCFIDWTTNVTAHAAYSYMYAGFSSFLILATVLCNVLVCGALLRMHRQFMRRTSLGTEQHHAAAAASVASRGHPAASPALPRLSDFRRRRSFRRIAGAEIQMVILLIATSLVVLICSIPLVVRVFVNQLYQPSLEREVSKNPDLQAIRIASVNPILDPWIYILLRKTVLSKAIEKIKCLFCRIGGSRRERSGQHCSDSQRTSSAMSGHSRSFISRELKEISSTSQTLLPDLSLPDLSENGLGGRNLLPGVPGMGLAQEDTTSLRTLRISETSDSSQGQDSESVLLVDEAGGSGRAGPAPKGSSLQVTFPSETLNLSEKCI
assay_readout: pIC50
One number for each entry, as −log10 of the molar value.

Some entries whose results are on file:
CCOC(=O)CCCCCCN1C(=O)CC[C@@H]1CCC(O)Cc1cccc(Cl)c1 (some centres unmarked) ... 6.00
CCOC(=O)CCCCCCN1C(=O)CC[C@@H]1/C=C/C(O)Cc1cccc(Cl)c1 (some centres unmarked) ... 6.52
CCOC(=O)CCCCCCN1C(=O)CC[C@@H]1/C=C/C(O)Cc1ccccc1 (some centres unmarked) [Example 10a] ... 6.22
O=C(O)CCCCCCN1C(=O)CC[C@@H]1CCC(=O)Cc1cccc(C(F)(F)F)c1 ... 5.66

We now examine a further molecule.
Reported pIC50 for CCOC(=O)CCCCCCN1C(=O)CC[C@@H]1CCC(=O)Cc1ccccc1 was 5.05

---

target: hEP4 (Homo sapiens); assay: Functional data, human recombinant EP4 receptor stable transfectants
assay_readout: EC50 (nM)
Answers are plain numbers, in nM.

Known results for molecules:
CCOC(=O)CCCCCCN1C(=O)CC[C@@H]1/C=C/C(O)Cc1cccc(C(F)(F)F)c1 (some centres unmarked) ... 26
CCOC(=O)CCCCCCN1C(=O)CC[C@@H]1/C=C/C(O)Cc1cccc(Cl)c1 (some centres unmarked) ... 21
O=C(O)CCCCCCN1C(=O)CC[C@@H]1/C=C/C(O)Cc1cccc(C(F)(F)F)c1 (some centres unmarked) ... 0.4
O=C(O)CCCCCCN1C(=O)CC[C@@H]1CCC(O)Cc1cccc(Cl)c1 (some centres unmarked) ... 0.7

Kindly give each listed record's EC50.
1. CCOC(=O)CCCCCCN1C(=O)CC[C@@H]1CCC(O)Cc1cccc(C(F)(F)F)c1 (some centres unmarked)
2. O=C(O)CCCCCCN1C(=O)CC[C@@H]1CCC(O)Cc1ccccc1 (some centres unmarked)
3. O=C(O)CCCCCCN1C(=O)CC[C@@H]1/C=C/C(O)Cc1cccc(Cl)c1 (some centres unmarked)
4. O=C(O)CCCCCCN1C(=O)CC[C@@H]1/C=C/C(=O)Cc1cccc(Cl)c1
5. CCOC(=O)CCCCCCN1C(=O)CC[C@@H]1CCC(O)Cc1cccc(Cl)c1 (some centres unmarked)
6. O=C(O)CCCCCCN1C(=O)CC[C@@H]1CCC(=O)Cc1cccc(C(F)(F)F)c1
7. O=C(O)CCCCCCN1C(=O)CC[C@@H]1CCC(O)Cc1cccc(C(F)(F)F)c1 (some centres unmarked)

Out:
1: 111; 2: 2.4; 3: 0.02; 4: 54; 5: 65; 6: 551; 7: 0.4

---

target: hEP3A (Homo sapiens, UniProt P43115); assay: Functional data, human recombinant EP3A receptor stable transfectants
Sequence (P43115 whole entry): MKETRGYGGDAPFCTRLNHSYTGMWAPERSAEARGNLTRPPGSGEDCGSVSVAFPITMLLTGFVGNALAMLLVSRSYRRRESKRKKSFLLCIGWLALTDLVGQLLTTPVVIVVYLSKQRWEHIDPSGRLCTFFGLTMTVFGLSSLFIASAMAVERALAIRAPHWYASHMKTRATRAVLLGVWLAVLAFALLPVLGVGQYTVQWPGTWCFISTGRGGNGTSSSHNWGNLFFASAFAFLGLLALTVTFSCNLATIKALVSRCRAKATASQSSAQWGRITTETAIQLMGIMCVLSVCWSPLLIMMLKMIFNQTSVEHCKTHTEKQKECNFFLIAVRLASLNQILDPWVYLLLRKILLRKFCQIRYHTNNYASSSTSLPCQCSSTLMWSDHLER
assay_readout: pEC50
One number for each entry, as −log10 of the molar value.

# count of solved cases: 2
O=C(O)CCCCCCN1C(=O)CC[C@@H]1/C=C/C(=O)Cc1cccc(Cl)c1 ... 6.49
O=C(O)CCCCCCN1C(=O)CC[C@@H]1/C=C/C(O)Cc1cccc(Cl)c1 (stereo partly drawn) ... 6.49

Next item in the queue.
For record O=C(O)CCCCCCN1C(=O)CC[C@@H]1CCC(O)Cc1cccc(Cl)c1 (stereo partly drawn) the listed pEC50 is 6.22

---

So I've got a bunch of compounds here, and I need their IC50 values.
biological target: hEP3D (Homo sapiens, UniProt P43115); assay: Radioligand binding, hEP3D; details: [3H]PGE2 competition
Sequence (P43115 1-374 isoform P43115-4): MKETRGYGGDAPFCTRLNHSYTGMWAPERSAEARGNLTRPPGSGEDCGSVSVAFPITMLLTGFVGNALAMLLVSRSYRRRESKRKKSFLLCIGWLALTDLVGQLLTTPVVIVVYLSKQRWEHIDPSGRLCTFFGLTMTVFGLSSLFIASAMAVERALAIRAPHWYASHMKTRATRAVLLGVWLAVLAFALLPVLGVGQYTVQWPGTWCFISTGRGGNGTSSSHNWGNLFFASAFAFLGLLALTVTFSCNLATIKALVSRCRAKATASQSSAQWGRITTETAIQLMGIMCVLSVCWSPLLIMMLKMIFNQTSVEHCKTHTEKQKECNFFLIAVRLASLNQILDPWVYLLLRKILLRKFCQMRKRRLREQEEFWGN
Give bare numbers, in nM.

Consider the following items and state reported IC50 for each.
1. O=C(O)CCCCCCN1C(=O)CC[C@@H]1CCC(O)Cc1cccc(Cl)c1 (some centres unmarked)
2. O=C(O)CCCCCCN1C(=O)CC[C@@H]1/C=C/C(=O)Cc1ccccc1 [Example 11a]

Out:
[12, 300]
